target: Cannabinoid receptor 1 (Homo sapiens, UniProt P21554); test: Displacement of [3H]CP-55-940 from human recombinant CB1 receptor in COS cells
Sequence (P21554 whole entry): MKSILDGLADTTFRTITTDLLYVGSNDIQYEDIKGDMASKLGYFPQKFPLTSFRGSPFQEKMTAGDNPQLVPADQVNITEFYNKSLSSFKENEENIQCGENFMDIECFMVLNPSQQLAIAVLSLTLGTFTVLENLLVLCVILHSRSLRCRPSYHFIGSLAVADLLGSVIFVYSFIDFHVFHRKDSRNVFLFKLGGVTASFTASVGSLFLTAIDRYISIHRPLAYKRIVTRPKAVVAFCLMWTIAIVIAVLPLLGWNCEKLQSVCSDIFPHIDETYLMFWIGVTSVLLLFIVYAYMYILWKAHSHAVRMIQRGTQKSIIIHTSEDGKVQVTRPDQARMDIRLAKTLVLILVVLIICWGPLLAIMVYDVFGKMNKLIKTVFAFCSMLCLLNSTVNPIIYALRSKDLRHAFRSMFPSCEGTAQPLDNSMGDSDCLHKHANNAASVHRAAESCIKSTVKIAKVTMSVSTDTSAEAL
property.label: pKi
Bear in mind: pKi is minus log10 of a mol/L concentration; give just that figure.

Fill in the blank: the reported pKi of `C[C@H](CO)NC(=O)CCC/C=C\C/C=C\C/C=C\C/C=C\CCOC(=O)c1cc(I)ccc1N=[N+]=[N-]` is ____.
6.24

====

molecular target: Cannabinoid receptor 2 (Homo sapiens, UniProt P34972); experiment: Displacement of [3H]CP-55-940 from human recombinant CB2 receptor in COS cells
Sequence (P34972 whole entry): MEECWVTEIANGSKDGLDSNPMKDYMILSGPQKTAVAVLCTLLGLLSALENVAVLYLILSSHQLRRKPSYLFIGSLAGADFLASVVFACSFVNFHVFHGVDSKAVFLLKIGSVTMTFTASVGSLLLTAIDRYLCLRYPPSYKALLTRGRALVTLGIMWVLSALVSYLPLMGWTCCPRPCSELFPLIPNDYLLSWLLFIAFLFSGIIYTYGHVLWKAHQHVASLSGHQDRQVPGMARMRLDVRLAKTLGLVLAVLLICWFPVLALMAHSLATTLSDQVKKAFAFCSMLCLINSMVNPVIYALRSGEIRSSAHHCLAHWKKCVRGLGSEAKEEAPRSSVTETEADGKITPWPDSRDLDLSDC
property.label: pKi
Bear in mind: pKi is minus log10 of a mol/L concentration; give just that figure.

Fill in the blank: the reported pKi of `C[C@H](CO)NC(=O)CCC/C=C\C/C=C\C/C=C\C/C=C\CCOC(=O)c1cc(I)ccc1N=[N+]=[N-]` is ____.
6.66
